Hey, just so you know, these numbers are from the supplement of paper PMC12350171.

System: Bacteroides uniformis;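 further: lowest concentration where monotonic median growth AUC falls below 0.75 of drug-free control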
PROTOCOL SUMMARY: IC25 growth inhibition; higher = less potent
REPORTED ENDPOINT: IC25 growth inhibition

Use these answered entries as a reference point.
MOLECULE | RESULT
CC(=O)Oc1cccc2c1C(=O)c1c(OC(C)=O)cc(C(=O)O)cc1C2=O | ≤ 5 µM
O=C1NCCN1CCN1CCC(c2cn(-c3ccc(F)cc3)c3ccc(Cl)cc23)CC1 | ≤ 20 µM
CC[C@H]1OC(=O)[C@H](C)[C@@H](O[C@H]2C[C@@](C)(OC)[C@@H](O)[C@H](C)O2)[C@H](C)[C@@H](O[C@@H]2O[C@H](C)C[C@H](N(C)C)[C@H]2O)[C@](C)(O)C[C@@H](C)C(=O)[C@H](C)[C@@H](O)[C@]1(C)O | < 1.25 µM
CN(C)CC/C=C1/c2ccccc2Sc2ccc(Cl)cc21 | ≤ 40 µM

Quick batch: IC25 growth inhibition for everything below.
1. CCOC(=O)C1=C(C)NC(C)=C(C(=O)OCC)C1c1ccccc1/C=C/C(=O)OC(C)(C)C
2. CNCCCC1c2ccccc2C=Cc2ccccc21
3. COc1cccc2c1C(=O)c1c(O)c3c(c(O)c1C2=O)C[C@@](O)(C(=O)CO)C[C@@H]3O[C@H]1C[C@H](N)[C@H](O)[C@H](C)O1

1: > 40 µM; 2: ≤ 160 µM; 3: > 160 µM

Give IC25 growth inhibition for each listed item.
1. CCc1oc2ccccc2c1C(=O)c1cc(Br)c(O)c(Br)c1
2. Cc1c(Cl)cccc1Nc1ccccc1C(=O)O
3. CCOC1O[C@H]([C@@H](COCc2ccccc2)OCc2ccccc2)[C@H](OCc2ccccc2)[C@H]1O (stereo not given in full) [Tribenoside]
4. O=c1[nH]c(=O)n([C@H]2C[C@H](O)[C@@H](CO)O2)cc1F
5. CO[C@@H]1[C@@H](OC(N)=O)[C@@H](O)[C@H](Oc2ccc3c(O)c(NC(=O)c4ccc(O)c(CC=C(C)C)c4)c(=O)oc3c2C)OC1(C)C

["≤ 10 µM", "≤ 160 µM", "> 40 µM", "< 1.25 µM", "< 1.25 µM"]

Return reported IC25 growth inhibition values for all items listed beneath this line.
1. CC(CN1c2ccccc2Sc2ccccc21)N(C)C (stereo not given)
2. Clc1ccccc1C(c1ccccc1)(c1ccccc1)n1ccnc1
3. Nc1nc(=S)c2ncn([C@@H]3O[C@H](CO)[C@@H](O)[C@H]3O)c2[nH]1
4. CN(N=O)C(=O)N[C@@H](C=O)[C@@H](O)[C@H](O)[C@H](O)CO
5. CCN(CC)CCOc1ccc(C(=C(Cl)c2ccccc2)c2ccccc2)cc1
6. NC[C@H]1O[C@H](O[C@H]2[C@H](O)[C@@H](O[C@H]3O[C@H](CO)[C@@H](O)[C@H](N)[C@H]3O)[C@H](N)C[C@@H]2N)[C@H](N)C[C@@H]1O
7. O=c1oc2ccccc2c(O)c1Cc1c(O)c2ccccc2oc1=O

1. > 160 µM
2. ≤ 80 µM
3. > 40 µM
4. ≤ 40 µM
5. ≤ 40 µM
6. > 160 µM
7. ≤ 20 µM

Give IC25 growth inhibition for each of the items listed below.
1. Clc1ccc(COC(Cn2ccnc2)c2ccc(Cl)cc2Cl)c(Cl)c1 (stereo not given)
2. CC(C)(C)c1ccc(C(O)CCCN2CCC(C(O)(c3ccccc3)c3ccccc3)CC2)cc1 (stereo not given)
3. C/C=C(/C(=C/C)c1ccc(O)cc1)c1ccc(O)cc1
4. CN(Cc1cnc2nc(N)nc(N)c2n1)c1ccc(C(=O)N[C@@H](CCC(=O)O)C(=O)O)cc1 [Methotrexate]
5. C[C@H]1c2cccc(O)c2C(=O)C2=C(O)[C@]3(O)C(=O)C(C(N)=O)=C(O)[C@@H](N(C)C)[C@@H]3[C@@H](O)[C@@H]21
6. CC[C@H]1OC(=O)[C@H](C)[C@@H](O[C@H]2C[C@@](C)(OC)[C@@H](O)[C@H](C)O2)[C@H](C)[C@@H](O[C@@H]2O[C@H](C)C[C@H](N(C)C)[C@H]2O)[C@](C)(OC)C[C@@H](C)C(=O)[C@H](C)[C@@H](O)[C@]1(C)O
7. COCCOC(=O)C1=C(C)NC(C)=C(C(=O)OC/C=C/c2ccccc2)C1c1cccc([N+](=O)[O-])c1 (stereo not given)
8. O=C1CCc2ccc(OCCCCN3CCN(c4cccc(Cl)c4Cl)CC3)cc2N1

["> 160 µM", "≤ 80 µM", "≤ 40 µM", "≤ 10 µM", "< 1.25 µM", "< 1.25 µM", "> 40 µM", "> 160 µM"]

Parameter requested: IC25 growth inhibition. Apply to each item below.
1. CN(C)C(=O)C(CCN1CCC(O)(c2ccc(Cl)cc2)CC1)(c1ccccc1)c1ccccc1 [Loperamide]
2. CN[C@H]1CC[C@@H](c2ccc(Cl)c(Cl)c2)c2ccccc21
3. C#C[C@]1(O)CC[C@H]2[C@@H]3CCc4cc(O)ccc4[C@H]3CC[C@@]21C

≤ 80 µM
≤ 160 µM
> 80 µM
